- Tested on: lung HOP-62
- PROTOCOL_DETAILS: NCI-60 cell line panel antiproliferative assay, HOP-62
- Format: cell-based
- TEST_CONDITIONS: NCI-60 panel; mean of triplicate experiments
Lab note: compare GI50 with 400 nM, writing T if less and F if equal or more.

Look over these answered cases.
| COMPOUND | EXPERIMENTAL_TARGET | CATEGORY |
| --- | --- | --- |
| COc1cc2c(cc1OS(N)(=O)=O)CC(C)N(Cc1cc(Cl)ccc1Cl)C2 (racemic) | lung HOP-62 | T |
| COc1cc2c(cc1O)CC(C)N(Cc1cc(Cl)ccc1Cl)C2 (racemic) | lung HOP-62 | T |
| COc1cc2c(cc1O)CC(C)N(Cc1cccc(Cl)c1Cl)C2 (racemic) | lung HOP-62 | F |
| COc1cc2c(cc1OS(N)(=O)=O)CC(C)N(Cc1ccc(Cl)cc1Cl)C2 (racemic) | lung HOP-62 | T |
| COc1cc2c(cc1OS(N)(=O)=O)CC(C)N(Cc1cccc(Cl)c1Cl)C2 (racemic) | lung HOP-62 | T |

Then this compound:
Problem: hey, is GI50 for COc1cc2c(cc1O)CC(C)N(Cc1ccc(Cl)cc1Cl)C2 (racemic) lower than 400 nM or not?
Solution: F

---

GI50 for assorted compounds
- System: renal SN12-C
- PROTOCOL_DETAILS: NCI-60 cell line panel antiproliferative assay, SN12-C
- Format: cell-based
- TEST_CONDITIONS: NCI-60 panel; mean of triplicate experiments
Hi! Could you send only the number? It should be in nM, unit omitted.

Problem: Record request: GI50 value, item COc1cc2c(cc1OS(N)(=O)=O)CC(C)N(Cc1ccc(Cl)cc1Cl)C2 (racemic)
Solution: 657

Problem: Now give it for COc1cc2c(cc1O)CC(C)N(Cc1cc(Cl)ccc1Cl)C2 (racemic) too.
Solution: 706

---

- EXPERIMENTAL_TARGET: Bovine brain tubulin (Bos taurus, UniProt P81947+Q6B856)
- Construct: Bovine brain tubulin was prepared as previously described[31] and used in the studies presented; from tissue; host or cells: bovine brain
- Sequence (Q6B856 whole entry): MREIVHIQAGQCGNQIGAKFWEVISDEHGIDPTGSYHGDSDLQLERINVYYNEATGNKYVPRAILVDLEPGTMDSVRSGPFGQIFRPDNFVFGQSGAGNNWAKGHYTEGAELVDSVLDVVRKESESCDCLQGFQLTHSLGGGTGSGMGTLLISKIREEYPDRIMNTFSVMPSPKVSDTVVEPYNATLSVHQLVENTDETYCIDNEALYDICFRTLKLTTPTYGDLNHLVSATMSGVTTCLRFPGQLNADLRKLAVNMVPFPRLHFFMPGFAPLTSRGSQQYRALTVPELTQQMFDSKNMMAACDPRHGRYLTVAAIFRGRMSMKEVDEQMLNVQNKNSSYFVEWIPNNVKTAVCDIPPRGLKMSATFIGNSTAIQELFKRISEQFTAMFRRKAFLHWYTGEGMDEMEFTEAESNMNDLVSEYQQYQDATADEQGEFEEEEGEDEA
- Sequence (P81947 whole entry): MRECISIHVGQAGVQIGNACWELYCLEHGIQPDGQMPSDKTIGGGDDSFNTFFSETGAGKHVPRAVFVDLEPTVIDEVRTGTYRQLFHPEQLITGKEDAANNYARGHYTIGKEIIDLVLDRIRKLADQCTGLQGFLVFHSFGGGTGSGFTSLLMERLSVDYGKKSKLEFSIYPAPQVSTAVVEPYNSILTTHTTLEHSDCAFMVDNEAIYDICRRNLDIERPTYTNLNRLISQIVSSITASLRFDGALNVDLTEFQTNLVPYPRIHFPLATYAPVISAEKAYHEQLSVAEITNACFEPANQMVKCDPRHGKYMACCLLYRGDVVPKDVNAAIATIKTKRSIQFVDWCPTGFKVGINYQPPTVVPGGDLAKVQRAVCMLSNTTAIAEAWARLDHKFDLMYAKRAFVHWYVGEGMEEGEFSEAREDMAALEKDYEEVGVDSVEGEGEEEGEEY
- PROTOCOL_DETAILS: Inhibition of [3H]colchicine binding to tubulin
- TEST_CONDITIONS: 5 μM inhibitor, 5.0 μM [3H]colchicine, 1.0 μM tubulin; mean ± SD
colchicine binding (% inhibition) for assorted compounds
Hi! Could you send only the number? It should be in %, unit omitted.

Problem: Fill in the recorded colchicine binding (% inhibition) for this compound, with Bovine brain tubulin (Bos taurus, UniProt P81947+Q6B856) as test system: COc1cc2c(cc1OS(N)(=O)=O)CC(C)N(Cc1cc(Cl)ccc1Cl)C2 (racemic)
Solution: 67

Problem: Now give it for COc1cc2c(cc1OS(N)(=O)=O)CC(C)N(Cc1cccc(Cl)c1Cl)C2 (racemic) too.
Solution: 35

Problem: Now give it for COc1cc2c(cc1OS(N)(=O)=O)CC(C)N(Cc1ccc(Cl)cc1Cl)C2 (racemic) too.
Solution: 47

Problem: Now give it for COc1ccc(Cl)c(CN2Cc3cc(OC)c(OS(N)(=O)=O)cc3CC2C)c1 (racemic) too.
Solution: 55

---

- EXPERIMENTAL_TARGET: Bovine brain tubulin (Bos taurus, UniProt P81947+Q6B856)
- Construct: Bovine brain tubulin was prepared as previously described[31] and used in the studies presented; from tissue; host or cells: bovine brain
- PROTOCOL_DETAILS: Tubulin assembly (polymerization) inhibition, turbidity
- Type: biochemical
- TEST_CONDITIONS: 10 μM tubulin; mean ± SD of at least two determinations
ATTRIBUTE_MEASURED: IC50 (µM)
Hi! Could you send only the number? It should be in µM, unit omitted.

Known IC50 results, listed for orientation:
| MOLECULE | RECORDED_MEASUREMENT |
| --- | --- |
| COc1ccc(Cl)c(CN2Cc3cc(OC)c(OS(N)(=O)=O)cc3CC2C)c1 (racemic) [4b] | 1.7 |
| COc1cc2c(cc1OS(N)(=O)=O)CC(C)N(Cc1ccc(Cl)cc1Cl)C2 (racemic) [8b] | 1.4 |
| COc1cc2c(cc1OS(N)(=O)=O)CCN(Cc1cc(Br)c(OC)c(OC)c1)C2 [compound 10] | 1.3 |
| COc1cc2c(cc1OS(N)(=O)=O)CC(C)N(Cc1cc(Cl)ccc1Cl)C2 (racemic) [8c] | 0.98 |

Query molecule follows.
Problem: Record request: IC50 value, item COc1cc2c(cc1OS(N)(=O)=O)CC(C)N(Cc1cccc(Cl)c1Cl)C2 (racemic) [8a]
Solution: 2.1

---

- System: ovarian OVCAR-3
- PROTOCOL_DETAILS: NCI-60 cell line panel antiproliferative assay, OVCAR-3
- Assay type: cell-based
- TEST_CONDITIONS: NCI-60 panel; mean of triplicate experiments
ATTRIBUTE_MEASURED: GI50
Units required after the number.

Problem: Record request: GI50 value, item COc1cc2c(cc1OS(N)(=O)=O)CC(C)N(Cc1ccc(Cl)cc1Cl)C2 (racemic)
Solution: 0.045 µM

Problem: Now give it for COc1cc2c(cc1OS(N)(=O)=O)CC(C)N(Cc1cccc(Cl)c1Cl)C2 (racemic) too.
Solution: 0.137 µM

Problem: Now give it for COc1cc2c(cc1O)CC(C)N(Cc1cc(Cl)ccc1Cl)C2 (racemic) too.
Solution: 0.17 µM

Problem: Now give it for COc1cc2c(cc1OS(N)(=O)=O)CC(C)N(Cc1cc(Cl)ccc1Cl)C2 (racemic) too.
Solution: 0.026 µM

Problem: Now give it for COc1cc2c(cc1O)CC(C)N(Cc1cccc(Cl)c1Cl)C2 (racemic) too.
Solution: 2.64 µM

Problem: Now give it for COc1cc2c(cc1O)CC(C)N(Cc1ccc(Cl)cc1Cl)C2 (racemic) too.
Solution: 0.201 µM

---

- Tested on: renal SN12-C
- PROTOCOL_DETAILS: NCI-60 cell line panel antiproliferative assay, SN12-C
- Format: cell-based
- TEST_CONDITIONS: NCI-60 panel; mean of triplicate experiments
GI50 for assorted molecules
Units required after the number.

| MOLECULE | EXPERIMENTAL_TARGET | GI50 |
| --- | --- | --- |
| COc1cc2c(cc1O)CC(C)N(Cc1cccc(Cl)c1Cl)C2 (racemic) | renal SN12-C | 5830 nM |

Problem: Record request: GI50 value, item COc1cc2c(cc1O)CC(C)N(Cc1ccc(Cl)cc1Cl)C2 (racemic)
Solution: 668 nM

Problem: Now give it for COc1cc2c(cc1OS(N)(=O)=O)CC(C)N(Cc1cccc(Cl)c1Cl)C2 (racemic) too.
Solution: 933 nM

Problem: Now give it for COc1cc2c(cc1OS(N)(=O)=O)CC(C)N(Cc1cc(Cl)ccc1Cl)C2 (racemic) too.
Solution: 345 nM
